# pEC50 listing for each entry below
# subject.of.test: recombinant human PD1 protein (human, UniProt Q15116 25-170, limits assumed)
# Sequence (Q15116 25-170 limits assumed): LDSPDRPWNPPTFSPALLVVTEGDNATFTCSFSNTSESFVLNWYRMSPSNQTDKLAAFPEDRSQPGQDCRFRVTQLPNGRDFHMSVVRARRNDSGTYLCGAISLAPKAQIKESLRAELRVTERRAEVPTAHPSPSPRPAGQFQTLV
# measurement.protocol: binding ELISA, plate-coated recombinant human PD1
Scale note: pEC50 = -log10(concentration in M).

// worked examples, pEC50 included
{"binder": "P-1271 (antibody, human IgG1, kappa, V domains shown) VH: QVQLVQSGAEVKKPGASVKVSCKASGYTFTNYYMYWVRQAPGQGLEWMGGINPSNGGTNFAQKFQGRVTLTTDSSTSTAYMELSSLRSDDTAVYYCARRDYRFDMGFDYWGQGTLVTVSS VL: EIVLTQSPATLSLSPGERATLSCRASQGVSTSGYSYLHWYQQKPGQAPRLLIYLASYRESGVPARFSGSGSGTDFTLTISSLEPEDFAVYYCQHSRDLPLTFGGGTKVEIKR", "result.type": "pEC50", "observed.result": 10.57}
{"binder": "P-1153 (antibody, human IgG1, kappa, V domains shown, Full-length IgG1 L234A/L235A/G237A, kappa) VH: QVQLVQSGVEVKKPGASVKVSCKASGYTFTNYYMYWVRQAPGQGLEWMGGINPSNGGTNYAQKFQGRVTLTTDSSTTTAYMELKSLQFDDTAVYYCARRDYRFDMGFDYWGQGTTVTVSS VL: EIVLTQSPATLSLSPGERATLSCRASQGVSTSGYSYLAWYQQKPGQAPRLLIYLASYRASGVPARFSGSGSGTDFTLTISSLEPEDFAVYYCQHSRDLPLTFGGGTKVEIKR", "result.type": "pEC50", "observed.result": 9.96}

For the next question, use this binder.
Reported pEC50 for P-1150 (antibody, human IgG1, kappa, V domains shown, Full-length IgG1 L234A/L235A/G237A, kappa) VH: QVQLVQSGVEVKKPGASVKVSCKASGYTFTNYYMYWVRQAPGQGLEWMGGINPSNGGTNFAQKFQGRVTLTTDSSTTTAYMELKSLQFDDTAVYYCARRDYRFDMGFDYWGQGTTVTVSS VL: EIVLTQSPATLSLSPGERATLSCRASQGVSTSGYSYLAWYQQKPGQAPRLLIYLASYRASGVPARFSGSGSGTDFTLTISSLEPEDFAVYYCQHSRDLPLTFGGGTKVEIKR was 10.06

The reported numbers originate from patent US20260078159A1.
